System: MDA-MB-468 breast
Experiment: NCI-60 one-dose screen, 48 h (100 = growth as untreated, 0 = no growth, -100 = all killed)
Settings: 10 µM unless noted
Compounds without any hit were thinned out: in the full panel of roughly 83,000, 20% have a hit.
readout.name: growth (%)

compound: COc1cc(NC(C)CCCNC(=O)CCC(=O)NCCCNCCCCCCCCNCCCNC(=O)CCC(=O)NCCCC(C)Nc2cc(OC)cc3cccnc23)c2ncccc2c1 (stereo not drawn)
experimental.target: MDA-MB-468 breast
scale.unit: %
experimental.value: 16.8
--
compound: Oc1ccc(/C=N\Nc2ccccn2)c(O)c1
experimental.target: MDA-MB-468 breast
scale.unit: %
experimental.value: 9.5
--
compound: O=C(CSc1nc2ccccc2c(=O)n1CCc1ccccc1)Nc1ccc(S(=O)(=O)Nc2ccc(Cl)nn2)cc1
experimental.target: MDA-MB-468 breast
scale.unit: %
experimental.value: 103
--
compound: O=C(NCCO)c1cccnc1
experimental.target: MDA-MB-468 breast
scale.unit: %
experimental.value: 93.7
--
compound: Cc1nc2ccc(Nc3nc(N4CCOCC4)nc(N4CCN(C)CC4)n3)cc2n1Cc1ccccc1
experimental.target: MDA-MB-468 breast
scale.unit: %
experimental.value: 66.8
--
compound: COc1cc([C@@H]2c3cc4c(cc3[C@H](OC3OC5COC(c6ccccc6)OC5C(O)C3O)[C@H]3COC(=O)[C@H]23)OCO4)cc(OC)c1OC (stereo partly drawn)
experimental.target: MDA-MB-468 breast
scale.unit: %
experimental.value: 17.5
--
compound: O=C(CSc1nc2ccccc2c(=O)n1-c1ccc(Cl)cc1)Nc1ccc(-c2nc3ccc([N+](=O)[O-])cc3[nH]2)cc1
experimental.target: MDA-MB-468 breast
scale.unit: %
experimental.value: -35.6
--
compound: COc1ccc(N2C(=O)/C(=C/C(Cl)=C/c3ccc([N+](=O)[O-])cc3)SC2=S)cc1
experimental.target: MDA-MB-468 breast
scale.unit: %
experimental.value: -11.8
